- Test system: RSV Long strain
- Protocol Notes: Viral Cytopathic Effect (CPE) Assay
- Format: cell-based
- Condition Description: human respiratory syncytial virus, 144 h; RSV Long strain (ATCC), cell viability after 6 days by Cell Counting kit-8
pEC50: −log10 of the molar value.
Experimental Endpoint: pEC50

O=C1N(Cc2nc3cc(Cl)ccc3n2C2COC2)c2cnccc2C12CC2 = 7.15
CC1(C)[C@H](n2c(CN3C(=O)C4(CC4)c4ccncc43)nc3cc(Cl)ccc32)CCS1(=O)=O (stereo in doubt) = 6.40

[P] O=C1N(Cc2nc3cc(Cl)ccc3n2C2CNC3(COC3)C2)c2cnccc2C12CC2 (centres unmarked)
[Q] O=C1N(Cc2nc3cc(Cl)cc(F)c3n2[C@H]2CCS(=O)(=O)C2)c2cnccc2C12CC2
Query: Determine, for P and Q , which has the greater value of pEC50. Kindly give the label for the entry you pick.
Result: P

[A] O=C1N(Cc2nc3cc(Cl)ccc3n2C2CNC2)c2cnccc2C12CC2
[B] CC(C)C(=O)N1CC[C@@H](n2c(CN3C(=O)C4(CC4)c4ccncc43)nc3cc(Cl)ccc32)C1
Query: Returns the identifier with the smallest measured pEC50 among A and B . Kindly give the label for the entry you pick.
Result: A

[a] CCC1(CC)C(=O)N(Cc2nc3cc(Cl)ccc3n2C2CS(=O)(=O)C2)c2cnccc21
[b] O=C1N(Cc2nc3cc(Cl)ccc3n2C2CCOCC2)c2cnccc2C12CC2
Query: Determine, for a and b , which has the greater value of pEC50. Kindly give the label for the entry you pick.
Result: b

Every entry's value here was drawn from patent US9670211B2.
